log2 fold change of degron read counts reference
# testedSystem: T1, CRBN, Q96SW2;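 note: pooled lentiviral library of zinc finger degron-EGFP fusions in mCherry-positive Jurkat cells, FACS-sorted after compound exposure, with degron abundance counted by next-generation sequencing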
# T1 chain: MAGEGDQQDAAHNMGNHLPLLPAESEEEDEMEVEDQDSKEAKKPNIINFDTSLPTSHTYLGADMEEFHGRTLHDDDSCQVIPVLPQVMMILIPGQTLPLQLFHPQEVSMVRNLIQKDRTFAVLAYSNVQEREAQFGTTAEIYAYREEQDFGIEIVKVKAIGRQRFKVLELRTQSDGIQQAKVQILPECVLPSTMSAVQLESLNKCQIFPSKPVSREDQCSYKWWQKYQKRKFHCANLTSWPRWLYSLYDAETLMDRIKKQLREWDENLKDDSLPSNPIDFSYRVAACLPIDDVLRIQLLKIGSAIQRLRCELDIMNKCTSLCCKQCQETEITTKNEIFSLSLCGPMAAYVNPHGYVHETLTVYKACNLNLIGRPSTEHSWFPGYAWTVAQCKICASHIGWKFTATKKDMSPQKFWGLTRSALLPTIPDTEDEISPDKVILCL
# assayComment: log2 fold change of degron read counts, EGFP-low vs EGFP+ sorted cells (limma voom), compound-induced degradation; higher = more compound-induced degradation of the degron-EGFP fusion; degrons are variants of IKZF1/3 zinc finger 2; compound dose not given here
# measurementContext: Jurkat; 18 h; compound: thalidomide
The full ranking holds about 8,300 sequences; the median of “log2 fold change of degron read counts, EGFP-low vs EGFP+ sorted cells (limma voom), compound-induced degradation” is about -1.1, and the highest 2% start at about 3.2. What follows is part of a selection rich in the highest values, with near analogues and random picks from the rest.

{"biopolymerSequence": "FFCDVCGAGFTQKGNLLRHIKL [46F_47F_49D_50V_52G_53A_54G_55F_67L_, Q9UKT9]", "log2 fold change of degron read counts": -2.07}
{"biopolymerSequence": "FECDICGAKFTQKGNLLRHIKL [46F_47E_49D_50I_52G_53A_54K_55F_67L_, Q9UKT9]", "log2 fold change of degron read counts": 0.61}
{"biopolymerSequence": "FMCEICGAHFTQKGNLLRHIKL [46F_47M_49E_50I_52G_53A_54H_55F_67L_, Q9UKT9]", "log2 fold change of degron read counts": 0.547}
{"biopolymerSequence": "FQCDICGAKFTQKGNLLRHIKL [46F_47Q_49D_50I_52G_53A_54K_55F_67L_, Q9UKT9]", "log2 fold change of degron read counts": 3.28}
{"biopolymerSequence": "FCCPICGAYFTQKGNLLRHIKL [46F_47C_49P_50I_52G_53A_54Y_55F_67L_, Q9UKT9]", "log2 fold change of degron read counts": 1.42}
{"biopolymerSequence": "FWCDICGAKFTQKGNLLRHIKL [46F_47W_49D_50I_52G_53A_54K_55F_67L_, Q9UKT9]", "log2 fold change of degron read counts": -0.173}
{"biopolymerSequence": "FLCEICGAHFTQKGNLLRHIKL [46F_47L_49E_50I_52G_53A_54H_55F_67L_, Q9UKT9]", "log2 fold change of degron read counts": 0.792}
{"biopolymerSequence": "FFCEICGAHFTQKGNLLRHIKL [46F_47F_49E_50I_52G_53A_54H_55F_67L_, Q9UKT9]", "log2 fold change of degron read counts": 1}
{"biopolymerSequence": "FNCEICGAHFTQKGNLLRHIKL [46F_47N_49E_50I_52G_53A_54H_55F_67L_, Q9UKT9]", "log2 fold change of degron read counts": -0.422}
{"biopolymerSequence": "FACEICGAHFTQKGNLLRHIKL [46F_47A_49E_50I_52G_53A_54H_55F_67L_, Q9UKT9]", "log2 fold change of degron read counts": -0.547}
{"biopolymerSequence": "FHCPVCGAMFTQKGNLLRHIKL [46F_47H_49P_50V_52G_53A_54M_55F_67L_, Q9UKT9]", "log2 fold change of degron read counts": -0.0518}
{"biopolymerSequence": "FNCSVCGHVFTQKGNLLRHIKL [46F_47N_49S_50V_52G_53H_54V_55F_67L_, Q9UKT9]", "log2 fold change of degron read counts": -2.16}
{"biopolymerSequence": "FMCDICGAKFTQKGNLLRHIKL [46F_47M_49D_50I_52G_53A_54K_55F_67L_, Q9UKT9]", "log2 fold change of degron read counts": -0.432}
{"biopolymerSequence": "FTCEICGAHFTQKGNLLRHIKL [46F_47T_49E_50I_52G_53A_54H_55F_67L_, Q9UKT9]", "log2 fold change of degron read counts": 2.11}
{"biopolymerSequence": "FHCDVCGAFFTQKGNLLRHIKL [46F_47H_49D_50V_52G_53A_54F_55F_67L_, Q9UKT9]", "log2 fold change of degron read counts": -2.83}
{"biopolymerSequence": "FKCPICGHRFTQKGNLLRHIKL [46F_47K_49P_50I_52G_53H_54R_55F_67L_, Q9UKT9]", "log2 fold change of degron read counts": -2.52}
{"biopolymerSequence": "FCCDICGAKFTQKGNLLRHIKL [46F_47C_49D_50I_52G_53A_54K_55F_67L_, Q9UKT9]", "log2 fold change of degron read counts": 0.858}
{"biopolymerSequence": "LTCEICGFICTQKGNLLRHIKL [46L_47T_49E_50I_52G_53F_54I_55C_67L_, Q9UKT9]", "log2 fold change of degron read counts": 1.1}
{"biopolymerSequence": "FICSVCGHTFTQKGNLLRHIKL [46F_47I_49S_50V_52G_53H_54T_55F_67L_, Q9UKT9]", "log2 fold change of degron read counts": -2.67}
{"biopolymerSequence": "FLCDICGAKFTQKGNLLRHIKL [46F_47L_49D_50I_52G_53A_54K_55F_67L_, Q9UKT9]", "log2 fold change of degron read counts": 0.0222}
{"biopolymerSequence": "FQCPICGAYFTQKGNLLRHIKL [46F_47Q_49P_50I_52G_53A_54Y_55F_67L_, Q9UKT9]", "log2 fold change of degron read counts": 3.36}
{"biopolymerSequence": "FWCPICGAYFTQKGNLLRHIKL [46F_47W_49P_50I_52G_53A_54Y_55F_67L_, Q9UKT9]", "log2 fold change of degron read counts": 0.973}
{"biopolymerSequence": "FWCNQCGAEFTQKGNLLRHIKL [46F_47W_49N_50Q_52G_53A_54E_55F_67L_, Q9UKT9]", "log2 fold change of degron read counts": -2.85}
{"biopolymerSequence": "FTCDICGAKFTQKGNLLRHIKL [46F_47T_49D_50I_52G_53A_54K_55F_67L_, Q9UKT9]", "log2 fold change of degron read counts": 0.963}
{"biopolymerSequence": "FFCDICGAKFTQKGNLLRHIKL [46F_47F_49D_50I_52G_53A_54K_55F_67L_, Q9UKT9]", "log2 fold change of degron read counts": -0.76}
